Biological target: dopamine D5 receptor (Homo sapiens)
Construct: expressed in transfected cells
Sequence (P21918 whole entry): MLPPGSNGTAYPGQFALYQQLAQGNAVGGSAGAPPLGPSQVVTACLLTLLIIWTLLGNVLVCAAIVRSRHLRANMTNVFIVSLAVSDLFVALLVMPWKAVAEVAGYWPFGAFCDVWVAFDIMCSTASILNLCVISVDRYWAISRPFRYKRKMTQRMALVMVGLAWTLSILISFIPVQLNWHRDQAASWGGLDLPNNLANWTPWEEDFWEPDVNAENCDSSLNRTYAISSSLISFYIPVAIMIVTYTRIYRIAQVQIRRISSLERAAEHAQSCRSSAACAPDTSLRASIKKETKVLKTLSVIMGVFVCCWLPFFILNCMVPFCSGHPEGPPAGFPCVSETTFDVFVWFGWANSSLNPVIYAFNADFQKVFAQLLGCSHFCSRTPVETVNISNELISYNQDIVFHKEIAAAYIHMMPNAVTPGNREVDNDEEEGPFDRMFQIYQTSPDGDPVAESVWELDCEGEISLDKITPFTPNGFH
Assay: Radioligand binding, dopamine D5 receptor
Settings: Table 10; Ki hD5 divided by Ki hGAL3
Catalogue of molecules with associated selectivity ratio hD5
outcome.measure: selectivity ratio hD5

>>> result_number("Cc1ccc(Nc2cc(N3CCCCC3)nc(N3CCN(c4ncccc4C(F)(F)F)CC3)n2)cc1")
5
>>> result_number("COc1cccc(Nc2cc(N3CCCCC3)nc(N(C)CCc3c[nH]c4ccccc34)n2)c1")
1

* * *

NE transporter (Rattus norvegicus) pKi data
Sequence (Q63380 1-617): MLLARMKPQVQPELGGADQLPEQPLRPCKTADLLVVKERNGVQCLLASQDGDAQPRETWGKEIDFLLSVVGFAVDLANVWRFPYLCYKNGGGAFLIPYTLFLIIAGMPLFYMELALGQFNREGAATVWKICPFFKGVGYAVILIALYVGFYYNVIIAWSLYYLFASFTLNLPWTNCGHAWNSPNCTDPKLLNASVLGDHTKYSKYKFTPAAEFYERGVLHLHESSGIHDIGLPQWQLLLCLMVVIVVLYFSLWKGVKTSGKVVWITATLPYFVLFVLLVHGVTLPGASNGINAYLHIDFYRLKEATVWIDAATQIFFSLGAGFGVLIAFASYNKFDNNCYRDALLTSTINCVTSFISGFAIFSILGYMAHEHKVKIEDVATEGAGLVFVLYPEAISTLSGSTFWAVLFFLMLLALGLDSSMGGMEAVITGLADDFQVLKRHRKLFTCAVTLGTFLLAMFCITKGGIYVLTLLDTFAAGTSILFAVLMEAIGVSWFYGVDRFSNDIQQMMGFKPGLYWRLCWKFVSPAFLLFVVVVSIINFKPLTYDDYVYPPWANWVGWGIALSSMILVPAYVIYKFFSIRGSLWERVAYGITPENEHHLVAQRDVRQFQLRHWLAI
pKi: −log10 of the molar value.
outcome.measure: pKi

>>> result_number("O=C1C(=Nc2ccc(Br)cc2)c2ccccc2N1c1ccccc1")
5.26
>>> result_number("Cc1ccc(Nc2cc(N(C)C)nc(N(C)CCc3c[nH]c4ccccc34)n2)cc1")
4.55
>>> result_number("O=C1C(=Nc2cccc(Cl)c2)c2ccccc2N1c1ccccc1")
5.31
>>> result_number("O=C1C(=Nc2ccc(C(F)(F)F)cc2)c2ccccc2N1c1ccccc1")
5.21
>>> result_number("COc1cccc(Nc2cc(N3CCCCC3)nc(N(C)CCc3c[nH]c4ccccc34)n2)c1")
4.74
>>> result_number("Cc1ccc(Nc2cc(N3CCCCC3)nc(N(C)CCc3ccccc3)n2)cc1")
4.88
>>> result_number("O=C1C(=Nc2ccc(Cl)cc2)c2ccccc2N1c1ccccc1")
5.36
>>> result_number("CN(C)c1cc(Nc2ccc(Cl)c(Cl)c2)nc(Nc2ccccc2)n1")
4.34

* * *

Catalogue of compounds with associated pKi
Biological target: human GAL1 receptor (Homo sapiens, UniProt P47211)
Construct: expressed in transfected cells
Sequence (P47211 whole entry): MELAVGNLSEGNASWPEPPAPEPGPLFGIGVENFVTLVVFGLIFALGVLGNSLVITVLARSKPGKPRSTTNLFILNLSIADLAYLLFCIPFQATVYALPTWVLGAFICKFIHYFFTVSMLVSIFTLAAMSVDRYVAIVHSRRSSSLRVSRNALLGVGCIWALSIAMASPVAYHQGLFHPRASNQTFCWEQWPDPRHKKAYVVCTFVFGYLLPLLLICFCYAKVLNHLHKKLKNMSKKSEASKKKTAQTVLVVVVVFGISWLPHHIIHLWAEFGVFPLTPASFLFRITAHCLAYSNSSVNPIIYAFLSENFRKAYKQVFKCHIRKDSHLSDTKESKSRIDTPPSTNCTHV
Experiment: Radioligand binding at cloned human GAL1 receptor
Details: pyrimidines, read-out: Ki GalR1
pKi: −log10 of the molar value.
outcome.measure: pKi

>>> result_number("Cc1ccc(Nc2cc(N(C)C)nc(N(C)CCc3c[nH]c4ccccc34)n2)cc1")
5.42
>>> result_number("Cc1ccc(Nc2cc(N3CCCCC3)nc(N(C)C3CCCCC3)n2)cc1")
6.18

* * *

Catalogue of compounds with associated selectivity ratio h5HT1E
Target: human 5HT1E (Homo sapiens, UniProt P28566)
Construct: expressed in transfected cells
Sequence (P28566 whole entry): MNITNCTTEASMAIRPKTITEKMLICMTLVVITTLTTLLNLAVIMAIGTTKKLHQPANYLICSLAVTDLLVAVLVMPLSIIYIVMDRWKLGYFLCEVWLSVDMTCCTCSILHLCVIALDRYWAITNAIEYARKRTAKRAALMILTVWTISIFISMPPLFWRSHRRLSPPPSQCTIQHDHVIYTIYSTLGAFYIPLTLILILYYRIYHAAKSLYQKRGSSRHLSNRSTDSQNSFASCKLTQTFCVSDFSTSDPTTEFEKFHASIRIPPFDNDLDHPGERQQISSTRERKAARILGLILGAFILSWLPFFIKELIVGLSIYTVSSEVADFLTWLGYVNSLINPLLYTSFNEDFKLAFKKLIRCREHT
Assay: Radioligand binding, 5HT1E receptor ([3H]-serotonin)
Conditions: Table 8; Ki h5HT1E divided by Ki hGAL3
outcome.measure: selectivity ratio h5HT1E

>>> result("Cc1ccc(Nc2cc(N3CCCCC3)nc(N(C)CCc3ccccc3)n2)cc1")
">100"
>>> result("CN(C)c1cc(Nc2ccc(Cl)c(Cl)c2)nc(Nc2ccccc2)n1")
14
>>> result("COC[C@@H]1[C@@H](c2ccccc2)OCCN1c1nc(Nc2ccc(C)cc2)cc(N2CCCCC2)n1")
">100"
>>> result("O=C1C(=Nc2ccc(C(F)(F)F)cc2)c2ccccc2N1c1ccccc1")
">100"
>>> result("O=C1C(=Nc2cccc(C(F)(F)F)c2)c2ccccc2N1c1ccccc1")
">100"

* * *

Catalogue of compounds with associated pKi
Biological target: human GAL3 receptor (Homo sapiens, UniProt O60755)
Construct: expressed in transfected cells
Sequence (O60755 whole entry): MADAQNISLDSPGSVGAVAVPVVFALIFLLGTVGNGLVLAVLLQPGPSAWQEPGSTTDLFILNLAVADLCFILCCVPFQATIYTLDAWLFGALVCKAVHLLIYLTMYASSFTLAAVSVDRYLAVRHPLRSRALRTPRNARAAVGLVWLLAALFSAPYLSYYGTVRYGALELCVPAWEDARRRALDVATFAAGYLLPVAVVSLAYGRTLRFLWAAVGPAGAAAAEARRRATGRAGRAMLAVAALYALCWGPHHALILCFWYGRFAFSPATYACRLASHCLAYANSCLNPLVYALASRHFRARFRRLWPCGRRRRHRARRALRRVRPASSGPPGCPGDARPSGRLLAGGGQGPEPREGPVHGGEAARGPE
Assay: Radioligand binding at cloned human GAL3 receptor
Details: pyrimidines, cloned human receptor; read-out: Ki GalR3
pKi: −log10 of the molar value.
outcome.measure: pKi

>>> result_number("CN(C)c1cc(Nc2cc(F)c(F)cc2F)nc(N2CCN(c3ccccn3)CC2)n1")
6.25
>>> result_number("CN(C)c1cc(Nc2cnc3ccccc3c2)nc(N2CCN(c3ccccn3)CC2)n1")
6.21
>>> result_number("Cc1ccc(Nc2cc(N(C)C)nc(N3CCN(c4cnccn4)CC3)n2)cc1")
6.12
>>> result_number("CN(C)c1cc(Nc2cccc(F)c2)nc(N2CCN(Cc3ccccc3)CC2)n1")
7.22
>>> result_number("COc1cccc(Nc2cc(N(C)C)nc(N3CCN(CC4CCCO4)CC3)n2)c1 (stereo not drawn)")
6.06
>>> result_number("Cc1ccc(Nc2cc(N3CCCCC3)nc(N3CCOCC3c3ccccc3)n2)cc1 (stereo not drawn)")
6.24
>>> result_number("CN(C)c1cc(Nc2ccc3ccccc3c2)nc(Nc2ccccc2)n1")
6.48
>>> result_number("Cc1ccccc1Nc1cc(N(C)C)nc(Nc2ccccc2)n1")
6.01
>>> result_number("CN(C)c1cc(Nc2ccc(C(F)(F)F)cc2Cl)nc(N2CCN(Cc3ccccc3)CC2)n1")
7.26
>>> result_number("Cc1ccc(Nc2cc(N3CCCCC3)nc(N(C)CCc3c[nH]c4ccccc34)n2)cc1")
7.04
>>> result_number("CN(CCc1c[nH]c2ccccc12)c1nc(Nc2ccc3ccccc3c2)cc(N2CCCCC2)n1")
7.09
>>> result_number("CN(C)c1cc(NC2CC3CCC2(C)C3(C)C)nc(Nc2ccccc2)n1 (stereo not drawn)")
6.32
>>> result_number("Cc1ccc(Nc2cc(N(C)C)nc(Nc3ccccc3)n2)cc1")
6.88
>>> result_number("Cc1ccc(Nc2cc(N(C)C)nc(Nc3ccc(Cl)c(Cl)c3)n2)cc1")
7.32
>>> result_number("CN(C)c1cc(Nc2ccccc2C(C)(C)C)nc(N2CCN(c3ccccn3)CC2)n1")
6.64
>>> result_number("CN(C)c1cc(NC2CCCCC2)nc(Nc2ccccc2)n1")
6.16
>>> result_number("COc1cccc(CN2CCN(c3nc(Nc4cccc(OC)c4)cc(N(C)C)n3)CC2)c1")
6.56
>>> result_number("CN(C)c1ccc(Nc2cc(N(C)C)nc(N3CCN(Cc4ccccc4)CC3)n2)cc1")
6.03
